# MEASUREMENT TARGET: hNR2B (Homo sapiens, UniProt Q05586+Q13224)
# Sequence (Q13224 27-1484, other chains not shown): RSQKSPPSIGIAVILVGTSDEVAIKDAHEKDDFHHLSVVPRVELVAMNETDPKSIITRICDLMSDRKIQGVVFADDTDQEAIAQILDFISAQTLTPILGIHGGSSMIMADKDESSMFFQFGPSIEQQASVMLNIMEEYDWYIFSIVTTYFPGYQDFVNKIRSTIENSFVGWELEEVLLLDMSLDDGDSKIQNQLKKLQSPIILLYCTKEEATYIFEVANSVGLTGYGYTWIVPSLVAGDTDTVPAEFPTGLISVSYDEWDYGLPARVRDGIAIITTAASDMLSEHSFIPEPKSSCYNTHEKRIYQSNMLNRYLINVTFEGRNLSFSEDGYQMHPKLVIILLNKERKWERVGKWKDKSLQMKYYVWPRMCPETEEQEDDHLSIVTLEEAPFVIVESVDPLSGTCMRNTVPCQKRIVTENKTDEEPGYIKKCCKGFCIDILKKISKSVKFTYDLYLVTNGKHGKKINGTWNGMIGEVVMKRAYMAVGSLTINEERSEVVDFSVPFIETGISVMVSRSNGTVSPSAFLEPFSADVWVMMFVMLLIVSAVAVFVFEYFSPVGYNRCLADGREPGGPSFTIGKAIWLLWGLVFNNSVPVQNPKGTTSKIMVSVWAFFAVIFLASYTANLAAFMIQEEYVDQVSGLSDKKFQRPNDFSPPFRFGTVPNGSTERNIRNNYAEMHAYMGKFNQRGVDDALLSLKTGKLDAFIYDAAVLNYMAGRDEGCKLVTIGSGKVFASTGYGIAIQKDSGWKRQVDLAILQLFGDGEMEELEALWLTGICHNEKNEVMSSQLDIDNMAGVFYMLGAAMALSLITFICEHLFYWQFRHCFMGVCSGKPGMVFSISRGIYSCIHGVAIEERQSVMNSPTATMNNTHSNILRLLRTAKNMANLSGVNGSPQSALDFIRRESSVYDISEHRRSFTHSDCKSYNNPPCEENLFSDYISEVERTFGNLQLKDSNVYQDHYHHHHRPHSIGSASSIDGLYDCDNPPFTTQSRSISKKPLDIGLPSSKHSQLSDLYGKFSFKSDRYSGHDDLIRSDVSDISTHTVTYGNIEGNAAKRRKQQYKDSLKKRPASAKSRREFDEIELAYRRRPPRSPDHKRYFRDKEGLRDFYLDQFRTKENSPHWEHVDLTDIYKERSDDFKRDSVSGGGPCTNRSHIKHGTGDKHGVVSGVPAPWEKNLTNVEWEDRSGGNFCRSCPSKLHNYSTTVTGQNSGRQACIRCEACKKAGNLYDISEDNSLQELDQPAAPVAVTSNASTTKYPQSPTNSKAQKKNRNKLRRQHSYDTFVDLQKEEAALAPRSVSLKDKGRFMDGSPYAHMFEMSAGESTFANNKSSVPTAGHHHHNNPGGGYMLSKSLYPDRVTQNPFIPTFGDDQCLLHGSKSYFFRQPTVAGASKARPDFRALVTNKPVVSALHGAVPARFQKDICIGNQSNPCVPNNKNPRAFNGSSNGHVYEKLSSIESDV
# PROTOCOL DETAILS: Electrophysiology NMDA receptor experiments: two electrode voltage-clamp in Xenopus laevis oocytes expressing GluN1/GluN2 subunits
# Assay type: cell-based
# ASSAY CONTEXT: oocytes voltage clamped at −40 mV; 50 μM glutamate, 30 μM glycine; read-out: Rating (hNR2B IC50)
pIC50: −log10 of the molar value.
# pIC50 values compiled below

| MOLECULE | MEASUREMENT TARGET | pIC50 |
| --- | --- | --- |
| Nc1nc2ccc(OCc3cnc(Nc4ccc(OC(F)F)cc4)nc3)cc2s1 | hNR2B (Homo sapiens, UniProt Q05586+Q13224) | > 6.70 |
| O=C1Nc2ccc(OCc3cnc(Nc4ccc(OC(F)(F)F)cc4)nc3)cc2CO1 | hNR2B (Homo sapiens, UniProt Q05586+Q13224) | > 6.70 |
| O=c1ccc2cc(OCc3ccc(Nc4ccc(OC(F)(F)F)cc4)nc3)ccc2[nH]1 | hNR2B (Homo sapiens, UniProt Q05586+Q13224) | > 6.70 |
| O=c1ccc2cc(C3CC3c3cnc(Nc4ccc(OC(F)F)cc4)nc3)ccc2[nH]1 (centres unmarked) | hNR2B (Homo sapiens, UniProt Q05586+Q13224) | > 6.70 |
| Cc1cc(Nc2ncc(COc3ccc4[nH]ncc4c3)cn2)ccc1OC(F)F | hNR2B (Homo sapiens, UniProt Q05586+Q13224) | > 6.70 |
| O=c1ccc2cc(OCc3cc(NCc4ccc(Cl)c(Cl)c4)ncn3)ccc2[nH]1 | hNR2B (Homo sapiens, UniProt Q05586+Q13224) | 5.00 to 6.00 |
| O=C1Cc2cc(OCc3cnc(Nc4ccc(OC(F)F)c(F)c4)nc3)ccc2N1 | hNR2B (Homo sapiens, UniProt Q05586+Q13224) | > 6.70 |
| Fc1cc(Nc2ncc(CCc3ccc4[nH]ncc4c3)cn2)ccc1OC(F)F | hNR2B (Homo sapiens, UniProt Q05586+Q13224) | > 6.70 |
| CCc1ccc(Nc2ncc(CCc3ccc4[nH]c(=O)ccc4c3)cn2)cc1F | hNR2B (Homo sapiens, UniProt Q05586+Q13224) | > 6.70 |
| Cc1ccc(Nc2ncc(COc3ccc4c(c3)COC(=O)N4)cn2)cc1F | hNR2B (Homo sapiens, UniProt Q05586+Q13224) | > 6.70 |
| CCc1ccc(Nc2ncc(CCc3ccc4c(c3)COC(=O)N4)cn2)cc1F | hNR2B (Homo sapiens, UniProt Q05586+Q13224) | > 6.70 |
| FC(F)Oc1ccc(Nc2ncc(COc3ccc4[nH]cnc4c3)cn2)cc1 | hNR2B (Homo sapiens, UniProt Q05586+Q13224) | > 6.70 |
| Oc1ccc(OCc2ccc(Nc3ccc(OC(F)F)cc3)nc2)cc1 | hNR2B (Homo sapiens, UniProt Q05586+Q13224) | > 6.70 |
| COc1ccc(Nc2ncc(COc3ccc4[nH]c(=O)ccc4c3)cn2)cc1C | hNR2B (Homo sapiens, UniProt Q05586+Q13224) | > 6.70 |
| FC(F)Oc1ccc(Nc2ncc(CCCNc3ncccn3)cn2)cc1 | hNR2B (Homo sapiens, UniProt Q05586+Q13224) | < 5.00 |
| O=c1ccc2cc(OCc3cnc(Nc4ccc(OC(F)F)c(Cl)c4)nc3)c(F)cc2[nH]1 | hNR2B (Homo sapiens, UniProt Q05586+Q13224) | > 6.70 |
| O=c1ccc2cc(CCc3cnc(Nc4ccc(OC(F)F)c(F)c4)nc3)ccc2[nH]1 | hNR2B (Homo sapiens, UniProt Q05586+Q13224) | > 6.70 |
| O=c1ccc2cc(OCc3cnc(NCc4ccc(Cl)c(Cl)c4)nc3)ccc2[nH]1 | hNR2B (Homo sapiens, UniProt Q05586+Q13224) | < 5.00 |
| COc1ccc(Nc2ncc(COc3ccc4[nH]c(=O)ccc4c3)cn2)cn1 | hNR2B (Homo sapiens, UniProt Q05586+Q13224) | > 6.70 |
| FC(F)Oc1ccc(Nc2ncc(COc3cn[nH]c3)cn2)cc1 | hNR2B (Homo sapiens, UniProt Q05586+Q13224) | > 6.70 |
| FC(F)(F)Oc1ccc(Nc2ncc(COc3ccc4[nH]nnc4c3)cn2)cc1 | hNR2B (Homo sapiens, UniProt Q05586+Q13224) | > 6.70 |
| O=C1CCc2cc(OCc3ccc(Nc4ccc(OC(F)(F)F)cc4)nc3)cc(F)c2N1 | hNR2B (Homo sapiens, UniProt Q05586+Q13224) | 5.00 to 6.00 |
| O=c1ccc2cc(OCc3cnc(Nc4ccc(OC(F)F)nc4)nc3)ccc2[nH]1 | hNR2B (Homo sapiens, UniProt Q05586+Q13224) | > 6.70 |

====

# MEASUREMENT TARGET: hNR2B (Homo sapiens, UniProt Q05586+Q13224)
# PROTOCOL DETAILS: Electrophysiology NMDA receptor experiments: two electrode voltage-clamp in Xenopus laevis oocytes expressing GluN1/GluN2 subunits
# Format: cell-based
# ASSAY CONTEXT: oocytes voltage clamped at −40 mV; 50 μM glutamate, 30 μM glycine; read-out: hNR2B IC50

| MOLECULAR STRING | MEASUREMENT TARGET | IC50, nM |
| --- | --- | --- |
| FC(F)Oc1ccc(Nc2ccc(CCc3ccc4[nH]ncc4c3)nn2)cc1 | hNR2B (Homo sapiens, UniProt Q05586+Q13224) | 135 |
| O=c1ccc2cc(CCc3cnc(Nc4ccc(OC(F)F)c(Cl)c4)nc3)ccc2[nH]1 | hNR2B (Homo sapiens, UniProt Q05586+Q13224) | 2.5 |
| Oc1ccc(OCc2ccc(Nc3ccc(OC(F)F)cc3)nc2)cc1 | hNR2B (Homo sapiens, UniProt Q05586+Q13224) | 13 |
| FC(F)Oc1ccc(Nc2ncc(CCc3ccc4[nH]ncc4c3)cn2)cc1Cl | hNR2B (Homo sapiens, UniProt Q05586+Q13224) | 183 |
| Oc1ccc(CCc2cnc(Nc3ccc(OC(F)F)cc3)nc2)cc1 | hNR2B (Homo sapiens, UniProt Q05586+Q13224) | 35 |

====

# MEASUREMENT TARGET: hNR2B (Homo sapiens, UniProt Q05586+Q13224)
# PROTOCOL DETAILS: Electrophysiology NMDA receptor experiments: two electrode voltage-clamp in Xenopus laevis oocytes expressing GluN1/GluN2 subunits
# Assay type: cell-based
# ASSAY CONTEXT: oocytes voltage clamped at −40 mV; 50 μM glutamate, 30 μM glycine; read-out: hNR2B IC50
pIC50: −log10 of the molar value.
QUANTITY: pIC50

| COMPOUND | MEASUREMENT TARGET | QUANTITY | LIMIT OPERATOR | RECORDED NUMBER |
| --- | --- | --- | --- | --- |
| O=c1ccc2cc(OCc3ccnc(Nc4ccc(Cl)cc4)n3)ccc2[nH]1 [Example 93] | hNR2B (Homo sapiens, UniProt Q05586+Q13224) | pIC50 | = | 5.90 |
| FC(F)(F)Oc1ccc(Nc2ncc(COc3ccc4[nH]nc(C(F)(F)F)c4c3)cn2)cc1 [Example 15] | hNR2B (Homo sapiens, UniProt Q05586+Q13224) | pIC50 | < | 5.52 |
| O=c1ccc2cc(OCc3cnc(Nc4ccc(Cl)cc4)nc3)ccc2[nH]1 [Example 14] | hNR2B (Homo sapiens, UniProt Q05586+Q13224) | pIC50 | = | 7.19 |
| Oc1ccc(OCc2cnc(Nc3ccc(Cl)c(Cl)c3)nc2)cc1 [Example 13] | hNR2B (Homo sapiens, UniProt Q05586+Q13224) | pIC50 | = | 6.40 |
| O=c1ccc2cc(OCc3cnc(NCc4ccc(F)cc4)nc3)ccc2[nH]1 [Example 27] | hNR2B (Homo sapiens, UniProt Q05586+Q13224) | pIC50 | = | 7.21 |

====

# IC50 values compiled below
# MEASUREMENT TARGET: hNR2B (Homo sapiens, UniProt Q05586+Q13224)
# PROTOCOL DETAILS: Electrophysiology NMDA receptor experiments: two electrode voltage-clamp in Xenopus laevis oocytes expressing GluN1/GluN2 subunits
# Type: cell-based
# ASSAY CONTEXT: oocytes voltage clamped at −40 mV; 50 μM glutamate, 30 μM glycine; read-out: hNR2B IC50
Structures can show the parent of a compound that is named as a salt.

| MOLECULE | IC50 |
| --- | --- |
| Oc1ccc(OCc2cnc(Nc3ccc(Cl)cc3)nc2)cc1 [Example 12] | 394 nM |
| O=c1ccc2cc(OCc3cc(Nc4ccc(Cl)c(Cl)c4)ncn3)ccc2[nH]1 [Example 95, trifluoroacetate] | 36 nM |
| O=c1[nH]c2ccc(OCc3cnc(Nc4ccc(OC(F)F)cc4)nc3)cc2o1 [Example 16] | 14 nM |
| O=c1ccc2cc(Oc3ccc(NCc4ccc(OC(F)(F)F)cc4)nn3)ccc2[nH]1 [Example 102] | 4600 nM |
| COc1ccc(Nc2ncc(COc3ccc4[nH]c(=O)ccc4c3)cn2)cc1 [Example 24] | 90 nM |
| Nc1ncc(OCc2cnc(Nc3ccc(OC(F)F)cc3)nc2)cn1 [Example 17] | > 1000 nM |
| COc1nc(Nc2ccc(OC(F)F)cc2)ncc1COc1ccc2[nH]c(=O)ccc2c1 [Example 18] | 5 nM |
| O=c1ccc2cc(OCc3cnc(NCc4ccc(F)c(F)c4)nc3)ccc2[nH]1 [Example 26] | 139 nM |
